- Measured on: UniProtKB Q07889
- Assay info: Activation of SOS1 in human HeLa cells expressing wild type KRAS assessed as induction of ERK1/2 T202/Y204 phosphorylation incubated for 30 mins by In-cell Western assay
- Type: cell-based

{"Chemical string": "Cc1cc(Cn2c(N3CC4(CNC4)C3)nc3c(-c4cnc(N)nc4C)cc(Cl)cc32)cc(C)c1F", "EC50": "7.8 µM"}
{"Chemical string": "Cc1cc(Cn2c(N3CCNCC3)nc3ccc(Cl)cc32)cc(C)c1F", "EC50": "14.5 µM"}
{"Chemical string": "Cc1cc(Cn2c(N3CCNCC3)nc3c(-c4cncnc4C)cc(Cl)cc32)cc(C)c1F", "EC50": "10.2 µM"}
{"Chemical string": "Cc1cc(Cn2c(N3CC4(CNC4)C3)nc3c(N4CCN(C)CC4)cc(Cl)cc32)cc(C)c1F", "EC50": "5.9 µM"}
{"Chemical string": "Cc1ncncc1-c1cc(Cl)cc2c1nc(N1CC3(CNC3)C1)n2Cc1ccc(F)cc1", "EC50": "33.2 µM"}
{"Chemical string": "Cc1cc2nc(N3CCNCC3)n(Cc3ccc(F)c(Cl)c3)c2cc1C", "EC50": "21.3 µM"}
{"Chemical string": "Cc1cc(Cn2c(N3CC4(CNC4)C3)nc3c(-c4cncnc4C)cc(Cl)cc32)cc(C)c1F", "EC50": "11.4 µM"}
{"Chemical string": "Cc1nc(N)ncc1-c1cc(Cl)cc2c1nc(N1CC3(CNC3)C1)n2Cc1ccc(F)cc1", "EC50": "14 µM"}
{"Chemical string": "Cc1cc(Cn2c(N3CCNCC3)nc3c(-c4cncnc4C(C)C)cc(Cl)cc32)cc(C)c1F", "EC50": "8.8 µM"}
{"Chemical string": "Fc1ccc(Cn2c(N3CCNCC3)nc3ccccc32)cc1Cl", "EC50": "21 µM"}
{"Chemical string": "Cc1cc(Cn2c(N3CCNCC3)nc3c(N4CCC[C@H]4CN)cc(Cl)cc32)cc(C)c1F", "EC50": "3.2 µM"}
{"Chemical string": "Cc1cc(Cn2c(N3CCNCC3)nc3c(-c4ccccc4Cl)cc(Cl)cc32)cc(C)c1F", "EC50": "11 µM"}
{"Chemical string": "Cc1cc(Cn2c(N3CC4(CNC4)C3)nc3c(-c4c(C)n[nH]c4C)cc(Cl)cc32)cc(C)c1F", "EC50": "14.1 µM"}
{"Chemical string": "Cc1cc(Cn2c(N3CC4(CNC4)C3)nc3c(-c4ccccc4Cl)cc(Cl)cc32)cc(C)c1F", "EC50": "14 µM"}

* * *

- Measured on: Son of sevenless homolog 1 (Homo sapiens)
- Sequence (Q07889 whole entry, the tested form may be a part): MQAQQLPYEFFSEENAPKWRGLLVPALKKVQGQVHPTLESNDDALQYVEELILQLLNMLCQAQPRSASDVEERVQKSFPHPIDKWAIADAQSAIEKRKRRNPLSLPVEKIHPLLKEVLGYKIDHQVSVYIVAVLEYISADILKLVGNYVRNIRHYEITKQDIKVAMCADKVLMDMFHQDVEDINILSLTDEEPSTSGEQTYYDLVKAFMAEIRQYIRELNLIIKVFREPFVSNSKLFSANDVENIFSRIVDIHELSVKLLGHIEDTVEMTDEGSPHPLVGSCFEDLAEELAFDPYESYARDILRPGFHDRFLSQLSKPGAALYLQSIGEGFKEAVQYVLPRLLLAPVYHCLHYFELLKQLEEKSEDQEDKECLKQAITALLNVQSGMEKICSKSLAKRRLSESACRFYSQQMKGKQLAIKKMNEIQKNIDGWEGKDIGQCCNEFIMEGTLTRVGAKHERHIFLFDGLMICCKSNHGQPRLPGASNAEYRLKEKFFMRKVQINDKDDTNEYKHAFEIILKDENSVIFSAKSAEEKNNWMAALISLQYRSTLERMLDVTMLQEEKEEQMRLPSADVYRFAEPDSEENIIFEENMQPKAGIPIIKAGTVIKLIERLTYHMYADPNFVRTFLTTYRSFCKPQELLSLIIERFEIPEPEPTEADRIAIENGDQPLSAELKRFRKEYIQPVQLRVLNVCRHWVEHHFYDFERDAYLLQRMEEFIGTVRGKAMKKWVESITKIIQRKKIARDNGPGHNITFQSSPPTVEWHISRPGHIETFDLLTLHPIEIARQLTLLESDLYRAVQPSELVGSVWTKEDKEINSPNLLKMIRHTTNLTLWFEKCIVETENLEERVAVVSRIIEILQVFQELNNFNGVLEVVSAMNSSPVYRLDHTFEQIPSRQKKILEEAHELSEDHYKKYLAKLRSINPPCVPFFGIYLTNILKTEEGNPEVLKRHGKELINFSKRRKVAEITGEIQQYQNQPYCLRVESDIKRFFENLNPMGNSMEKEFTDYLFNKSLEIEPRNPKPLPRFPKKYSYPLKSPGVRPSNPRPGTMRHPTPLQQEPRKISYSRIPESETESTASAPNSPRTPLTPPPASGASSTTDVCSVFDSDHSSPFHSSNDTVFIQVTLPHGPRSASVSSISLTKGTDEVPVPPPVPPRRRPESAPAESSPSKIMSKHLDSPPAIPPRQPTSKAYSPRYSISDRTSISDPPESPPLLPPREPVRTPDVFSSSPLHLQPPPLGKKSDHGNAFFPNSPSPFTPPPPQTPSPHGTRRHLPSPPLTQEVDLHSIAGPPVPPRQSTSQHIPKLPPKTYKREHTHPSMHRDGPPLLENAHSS
- Assay info: Activation of human recombinant N-terminal His6-tagged SOS1 (564 to 1049 residues) expressed in BL21-RIL Escherichia coli assessed as SOS1-RAS complex formation by measuring exchange of GTP to BODIPY-GDP measured every 3 secs for 30 mins by nucleotide exchange assay relative to control
- Parameters: concentration or dose not given beside the values
Reported metric: Activity (%)

{"Chemical string": "Fc1ccc(Cn2c(N3CCNCC3)nc3ccc(Br)cc32)cc1Cl", "Display unit": "%", "Result": 115}
{"Chemical string": "Cc1cc2nc(N3CCN(C)CC3)n(Cc3ccc(F)c(Cl)c3)c2cc1C", "Display unit": "%", "Result": 143}
{"Chemical string": "Fc1ccc(Cn2c(N3CCNCC3)nc3ccc(Cl)cc32)cc1Cl", "Display unit": "%", "Result": 109}
{"Chemical string": "Cc1ccc2nc(N3CCNCC3)n(Cc3ccc(F)c(Cl)c3)c2c1", "Display unit": "%", "Result": 106}
{"Chemical string": "Cc1cc2nc(N3CCC(N)CC3)n(Cc3ccc(F)c(Cl)c3)c2cc1C", "Display unit": "%", "Result": 114}
{"Chemical string": "Cc1cc2nc(C3CCNCC3)n(Cc3ccc(F)c(Cl)c3)c2cc1C", "Display unit": "%", "Result": 128}
{"Chemical string": "Cc1cc2c(cc1C)N(Cc1ccccc1)C1=NCCCN12", "Display unit": "%", "Result": 64}
{"Chemical string": "Cc1cc2nc(N3CCNCC3)n(Cc3ccc(F)c(Cl)c3)c2cc1C", "Display unit": "%", "Result": 211}
{"Chemical string": "Cc1cc2nc(N3CCCNCC3)n(Cc3ccc(F)c(Cl)c3)c2cc1C", "Display unit": "%", "Result": 176}
{"Chemical string": "Cc1cc2nc(N3CCNCC3)n(Cc3ccccc3)c2cc1C", "Display unit": "%", "Result": 122}
{"Chemical string": "Cc1cc2nc(N3CCNCC3)n(Cc3cc(C)c(F)c(C)c3)c2cc1C", "Display unit": "%", "Result": 270}
{"Chemical string": "Cc1cc2nc(N3CCNCC3)n(Cc3ccc(F)c(C)c3)c2cc1C", "Display unit": "%", "Result": 190}
{"Chemical string": "Cc1cc2nc(N3CCNCC3)n(Cc3ccc(F)c(F)c3)c2cc1C", "Display unit": "%", "Result": 183}

* * *

Measured pKd by item
- Measured on: Son of sevenless homolog 1 (Homo sapiens)
- Assay info: Binding affinity to human recombinant N-terminal His6-tagged SOS1 (564 to 1049 residues) expressed in BL21-RIL Escherichia coli by fluorescent probe S2 based fluorescence polarization anisotrophy saturation binding assay
pKd: −log10 of the molar value.

{"Chemical string": "Cc1cc(Cn2c(N3CCNCC3)nc3c(-c4c(C)cccc4C)cc(Cl)cc32)cc(C)c1F", "pKd": 6.52}
{"Chemical string": "Cc1cc(Cn2c(N3CCNCC3)nc3c(N4CCC[C@H]4CN)cc(Cl)cc32)cc(C)c1F", "pKd": 6.85}
{"Chemical string": "Cc1cc(Cn2c(N3CCNCC3)nc3c(-c4ccccc4CO)cc(Cl)cc32)cc(C)c1F", "pKd": 6.85}
{"Chemical string": "Cc1cc(Cn2c(N3CCNCC3)nc3c(-c4cncnc4C)cc(Cl)cc32)cc(C)c1F", "pKd": 6.96}
{"Chemical string": "Cc1cc(Cn2c(N3CCNCC3)nc3c(-c4cn[nH]c4)cc(Cl)cc32)cc(C)c1F", "pKd": 6.74}
{"Chemical string": "Cc1cc(Cn2c(N3CCNCC3)nc3c(-c4cnccn4)cc(Cl)cc32)cc(C)c1F", "pKd": 6.41}
{"Chemical string": "Cc1cc(Cn2c(N3CCNCC3)nc3c(-c4cncnc4)cc(Cl)cc32)cc(C)c1F", "pKd": 6.46}
{"Chemical string": "Cc1cc(Cn2c(N3CCNCC3)nc3c(-c4cccnn4)cc(Cl)cc32)cc(C)c1F", "pKd": 6.35}
{"Chemical string": "Cc1ccccc1-c1cc(Cl)cc2c1nc(N1CCNCC1)n2Cc1cc(C)c(F)c(C)c1", "pKd": 6.68}
{"Chemical string": "Cc1cc(Cn2c(N3CCNCC3)nc3c(-c4cncnc4C(C)C)cc(Cl)cc32)cc(C)c1F", "pKd": 7.00}
{"Chemical string": "Cc1ncncc1-c1cc(Cl)cc2c1nc(N1CC3(CNC3)C1)n2Cc1ccc(F)cc1", "pKd": 6.74}
{"Chemical string": "Cc1cc(Cn2c(N3CCNCC3)nc3c(-c4ccncc4)cc(Cl)cc32)cc(C)c1F", "pKd": 6.62}
{"Chemical string": "Cc1cc(Cn2c(N3CCNCC3)nc3c(N4CCCCC4)cc(Cl)cc32)cc(C)c1F", "pKd": 6.70}

* * *

- Measured on: Son of sevenless homolog 1 (Homo sapiens)
- Assay info: Activation of human recombinant N-terminal His6-tagged SOS1 (564 to 1049 residues) expressed in BL21-RIL Escherichia coli assessed as SOS1-RAS complex formation by measuring exchange of GTP to BODIPY-GDP measured every 3 secs for 30 mins by nucleotide exchange assay

{"Chemical string": "Cc1cc2ncn(Cc3ccc(F)c(Cl)c3)c2cc1C", "EC50": "> 100 µM"}
{"Chemical string": "Cc1cc2nc(C3CCNCC3)n(Cc3ccc(F)c(Cl)c3)c2cc1C", "EC50": "5.6 µM"}
{"Chemical string": "Cc1cc2nc(N3CCNCC3)n(Cc3ccc(F)c(F)c3)c2cc1C", "EC50": "5.9 µM"}
{"Chemical string": "Cc1cc2nc(N3CCNCC3)n(Cc3ccc(F)cc3)c2cc1C", "EC50": "5.9 µM"}
{"Chemical string": "Cc1ccc(Cn2c(N3CCNCC3)nc3cc(C)c(C)cc32)cc1", "EC50": "36.6 µM"}
